target: CDK6/cyclin D1 (Homo sapiens); experiment: Inhibition of CDK6/cyclin D1 (unknown origin)
Sequence (Q00534 whole entry, one chain of several): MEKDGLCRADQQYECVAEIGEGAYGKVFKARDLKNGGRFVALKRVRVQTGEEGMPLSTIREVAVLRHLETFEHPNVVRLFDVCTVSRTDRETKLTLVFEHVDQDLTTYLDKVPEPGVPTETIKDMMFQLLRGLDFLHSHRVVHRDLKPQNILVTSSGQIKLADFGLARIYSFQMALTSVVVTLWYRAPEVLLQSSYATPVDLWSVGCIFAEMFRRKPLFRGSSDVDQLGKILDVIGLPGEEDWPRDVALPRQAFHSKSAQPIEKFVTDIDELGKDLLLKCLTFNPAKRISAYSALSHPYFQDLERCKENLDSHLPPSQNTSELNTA
pIC50: −log10 of the molar value.
measured-property: pIC50

I = O=C(Nc1ccccc1C(F)(F)F)c1cc2cnc(Nc3ccc(N4CCNCC4)cn3)nc2n1C1CCCC1
II = COc1ccccc1NC(=O)c1cc2cnc(Nc3ccc(N4CCNCC4)cn3)nc2n1C1CCCC1
Among I and II , which shows a numerically higher pIC50 result? Which one? Tell me its label.
II
(II: 7.28, I: 6.18)

a = COc1ccc(NC(=O)c2cc3cnc(Nc4ccc(N5CCNCC5)cn4)nc3n2C2CCCC2)cc1
b = COc1cccc(NC(=O)c2cc3cnc(Nc4ccc(N5CCNCC5)cn4)nc3n2C2CCCC2)c1
c = O=C(Nc1ccccc1Cl)c1cc2cnc(Nc3ccc(N4CCNCC4)cn3)nc2n1C1CCCC1
Ascending by pIC50, please. Output the labels ranked as instructed.
a, b, c
(a: 6.41, b: 6.77, c: 7.28)

###

experiment: Permeability of the compound at pH 5.0 by PAMPA; format: ADME; settings: read-out: permeability
measured-property: Papp (×10⁻⁶ cm/s)

smi | measure-unit | Papp
COc1ccccc1NC(=O)c1cc2cnc(Nc3ccc(N4CCNCC4)cn3)nc2n1C1CCCC1 | ×10⁻⁶ cm/s | 517
Cc1cc(C)nc(NS(=O)(=O)c2ccc(Nc3ncc4cc(C(=O)N(C)C)n(C5CCCC5)c4n3)cc2)n1 | ×10⁻⁶ cm/s | 443

###

experiment: Solubility of the compound at pH 7.4; format: physicochemical; conditions: buffer
measured-property: solubility (µg/mL)

A = Cc1cc(C)nc(NS(=O)(=O)c2ccc(Nc3ncc4cc(C(=O)N(C)C)n(C5CCCC5)c4n3)cc2)n1
B = COc1ccccc1NC(=O)c1cc2cnc(Nc3ccc(N4CCNCC4)cn3)nc2n1C1CCCC1
Hi there, can you help? I need to know whether A or B has lower measured solubility. Which one? Tell me its label.
B
(B: 1.1 µg/mL, A: 7.5 µg/mL)

###

biological target: Cyclin-dependent kinase 6 (Homo sapiens); assay: Inhibition of CDK6 (unknown origin) at 1 uM
The source made the active and inactive calls. The calls are words filed in the database; no cut-off is given here.
measured-property: inhibition

These solved cases illustrate the format of a correct answer.
smi | system-tested | inhibition
COc1ccccc1NC(=O)c1cc2cnc(Nc3ccc(N4CCNCC4)cn3)nc2n1C1CCCC1 | Cyclin-dependent kinase 6 (Homo sapiens) | Active
O=C(Nc1ccccc1F)c1cc2cnc(Nc3ccc(N4CCNCC4)cn3)nc2n1C1CCCC1 | Cyclin-dependent kinase 6 (Homo sapiens) | Active
O=C(Nc1ccccc1Cl)c1cc2cnc(Nc3ccc(N4CCNCC4)cn3)nc2n1C1CCCC1 | Cyclin-dependent kinase 6 (Homo sapiens) | Active
O=C(Nc1ccccc1C(F)(F)F)c1cc2cnc(Nc3ccc(N4CCNCC4)cn3)nc2n1C1CCCC1 | Cyclin-dependent kinase 6 (Homo sapiens) | Active
O=C(Nc1ccccc1)c1cc2cnc(Nc3ccc(N4CCNCC4)cn3)nc2n1C1CCCC1 | Cyclin-dependent kinase 6 (Homo sapiens) | Active

Now, please, on to the next compound.
For reference, reported inhibition for Cc1ccccc1NC(=O)c1cc2cnc(Nc3ccc(N4CCNCC4)cn3)nc2n1C1CCCC1 stands at Active

###

molecular target: Cyclin-dependent kinase 4/cyclin D1 (Homo sapiens, UniProt P11802); assay: Inhibition of CDK4/cyclin D1 (unknown origin)
Sequence (P11802 whole entry): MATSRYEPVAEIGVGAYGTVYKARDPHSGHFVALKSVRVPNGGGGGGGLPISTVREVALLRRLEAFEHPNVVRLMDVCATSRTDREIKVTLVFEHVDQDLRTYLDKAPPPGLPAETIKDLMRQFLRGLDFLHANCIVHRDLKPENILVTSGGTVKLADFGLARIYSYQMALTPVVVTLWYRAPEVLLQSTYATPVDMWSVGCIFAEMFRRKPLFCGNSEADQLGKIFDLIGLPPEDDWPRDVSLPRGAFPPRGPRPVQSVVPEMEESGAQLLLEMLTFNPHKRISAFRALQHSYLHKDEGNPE
Sequence (P24385 whole entry, further chain): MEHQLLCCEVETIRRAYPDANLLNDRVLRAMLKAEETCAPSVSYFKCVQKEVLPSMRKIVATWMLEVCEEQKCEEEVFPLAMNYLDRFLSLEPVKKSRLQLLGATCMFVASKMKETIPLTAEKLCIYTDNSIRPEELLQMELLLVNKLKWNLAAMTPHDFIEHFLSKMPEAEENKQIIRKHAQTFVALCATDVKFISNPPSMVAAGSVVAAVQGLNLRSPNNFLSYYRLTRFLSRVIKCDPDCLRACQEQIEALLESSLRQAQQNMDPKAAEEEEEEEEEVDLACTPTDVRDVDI
pIC50: −log10 of the molar value.
measured-property: pIC50

These solved cases illustrate the format of a correct answer.
compound | pIC50
O=C(Nc1ccccc1Cl)c1cc2cnc(Nc3ccc(N4CCNCC4)cn3)nc2n1C1CCCC1 | 7.64
O=C(Nc1ccccc1F)c1cc2cnc(Nc3ccc(N4CCNCC4)cn3)nc2n1C1CCCC1 | 7.34
COc1ccc(NC(=O)c2cc3cnc(Nc4ccc(N5CCNCC5)cn4)nc3n2C2CCCC2)c(OC)c1 | 7.55
O=C(Nc1ccccc1C(F)(F)F)c1cc2cnc(Nc3ccc(N4CCNCC4)cn3)nc2n1C1CCCC1 | 7.22

1 = O=C(Nc1ccccc1)c1cc2cnc(Nc3ccc(N4CCNCC4)cn3)nc2n1C1CCCC1
2 = CN(C)C(=O)c1cc2cnc(NC3CCCCC3)nc2n1C1CCCC1
Hi there, can you help? I need to know whether 1 or 2 has lower measured pIC50. Which one? Tell me its label.
2
(2: 6.42, 1: 7.54)

A = CN(C)C(=O)c1cc2cnc(Nc3ccc(Cl)cc3)nc2n1C1CCCC1
B = Cc1ccccc1NC(=O)c1cc2cnc(Nc3ccc(N4CCNCC4)cn3)nc2n1C1CCCC1
Hi there, can you help? I need to know whether A or B has lower measured pIC50. Which one? Tell me its label.
A
(A: 6.84, B: 7.55)

I = CCC(CO)Nc1ncc2cc(C(=O)N(C)C)n(C3CCCC3)c2n1 (stereo unspecified)
II = CN(C)C(=O)c1cc2cnc(Nc3ccccc3)nc2n1C1CCCC1
Among I and II , which shows a numerically higher pIC50 result? Which one? Tell me its label.
II

1 = O=C(Nc1ccc[n+]([O-])c1)c1cc2cnc(Nc3ccc(N4CCNCC4)cn3)nc2n1C1CCCC1
2 = Cc1cc(C)nc(NS(=O)(=O)c2ccc(Nc3ncc4cc(C(=O)N(C)C)n(C5CCCC5)c4n3)cc2)n1
Among 1 and 2 , which shows a numerically higher pIC50 result? Which one? Tell me its label.
2
(2: 6.82, 1: 5.52)
